- targetOrTestSystem: T1, 人CD27 (稳定表达人CD27的细胞系 HEK::CD27 细胞) (human, UniProt P26842 20-260)
- T1 construct: whole, on cells; also called hCD27; 表达hCD27的细胞
- T1 sequence (looked up): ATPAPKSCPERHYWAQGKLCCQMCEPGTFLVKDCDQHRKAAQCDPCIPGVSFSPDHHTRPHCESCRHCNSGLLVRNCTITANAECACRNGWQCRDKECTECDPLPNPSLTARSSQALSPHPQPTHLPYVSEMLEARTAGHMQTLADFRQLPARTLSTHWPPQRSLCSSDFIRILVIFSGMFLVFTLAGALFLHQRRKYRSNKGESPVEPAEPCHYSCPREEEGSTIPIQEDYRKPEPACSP
- experimentalDetails: flow cytometry on HEK::CD27 cells, 10 ng and 100 ng antibody

binder: Hu6D8-12 (antibody, human IgG4, V domains shown) VH: EVQLVQSGAEVKKPGASVKVSCKASGYTFTNYGMNWVRQAPGQGLKWMGWINTNTGEPTYADDFKGRFTFTLDTSISTAYMELSRLRSDDTAVYYCAREGDGFDSWGQGTTVTVSS VL: QFVLTQSPDFQSVTPKEKVTITCSATSSVNYMHWYQQKPDQSPKRWIYDTSRLASGVPSRFSGSGSGTDYTLTINSLEAEDAATYYCQQWNTNPWTFGGGTKVEIK
binding result: binds
//
binder: Hu6D8-3 (antibody, human IgG4, V domains shown) VH: EVQLVQSGAEVKKPGASVKVSCKASGYTFTNYGMNWVRQAPGQGLKWMGWINTNTGEPTYADDFKGRVTMTLDTSISTAYMELSRLRSDDTAVYYCAREGDGFDSWGQGTTVTVSS VL: QIVLTQSPDFQSVTPKEKVTITCSATSSVNYMHWYQQKPDQSPKRLIYDTSRLASGVPSRFSGSGSGTDYTLTINSLEAEDAATYYCQQWNTNPWTFGGGTKVEIK
binding result: binds
//
binder: Hu6D8-5 (antibody, human IgG4, V domains shown) VH: EVQLVQSGAEVKKPGASVKVSCKASGYTFTNYGMNWVRQAPGQGLKWMGWINTNTGEPTYADDFKGRVTMTLDTSISTAYMELSRLRSDDTAVYYCAREGDGFDSWGQGTTVTVSS VL: QIVLTQSPDFQSVTPKEKVTITCSATSSVNYMHWYQQKPDQSPKRWIYDTSRLASGVPSRFSGSGSGTDYTLTINSLEAEDAATYYCQQWNTNPWTFGGGTKVEIK
binding result: binds
